System: K12877-001-R-J1-PDC complex spheroid viability
procedureSummary: Anticancer human tumor K12877-001-R-J1-PDC patient-derived lung adenocarcinoma cell line growth inhibition [RAS]
conditionDetails: second compound 1 µM; first compound 0.0949 µM; stronger effect = lower value
Measured viability, T/C, listed per entry.
readoutType: viability, T/C (%)

INSERT INTO measurements (compound, readouttype, valueobserved) VALUES
  ('CCc1c2c(nc3ccc(O)cc13)-c1cc3c(c(=O)n1C2)COC(=O)[C@]3(O)CC + C#Cc1c(F)ccc2cc(O)cc(-c3ncc4c(N5CC6CCC(C5)N6)nc(OCC56CCCN5CC(F)C6)nc4c3F)c12', 'viability, T/C', 2.66),
  ('CC1(C)CCC(Nc2ncc(C(F)(F)F)c(-c3c[nH]c4c(P(C)(C)=O)c(C#N)ccc34)n2)CN1 (centres undefined) + C=CC(=O)N1CCN(c2nc(OCC3CCCN3C)nc3c(F)c(-c4nc(N)cc(C)c4C(F)(F)F)c(Cl)cc23)C(C)C1', 'viability, T/C', 49.7),
  ('CC1(C)CCC(Nc2ncc(C(F)(F)F)c(-c3c[nH]c4c(P(C)(C)=O)c(C#N)ccc34)n2)CN1 (centres undefined) + C#Cc1c(F)ccc2cc(O)cc(-c3ncc4c(N5CC6CCC(C5)N6)nc(OCC56CCCN5CC(F)C6)nc4c3F)c12', 'viability, T/C', 40),
  ('CCc1c2c(nc3ccc(O)cc13)-c1cc3c(c(=O)n1C2)COC(=O)[C@]3(O)CC + C=CC(=O)N1CCN(c2nc(OCC3CCCN3C)nc3c(F)c(-c4nc(N)cc(C)c4C(F)(F)F)c(Cl)cc23)C(C)C1', 'viability, T/C', 2.4);

* * *

Measured pIC50, listed per entry.
Tested on: K12877-001-R-J1-PDC complex spheroid viability
procedureSummary: Anticancer human tumor K12877-001-R-J1-PDC cell line growth inhibition [RAS];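 also: spheroids exposed to agents for one week before readout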
conditionDetails: curve of first compound; second compound 0.000949 µM
pIC50: −log10 of the molar value.
readoutType: pIC50

INSERT INTO measurements (compound, readouttype, qualifier, valueobserved) VALUES
  ('CC(C)NCC(C(=O)N1CCN(c2ncnc3c2C(C)CC3O)CC1)c1ccc(Cl)cc1 (centres undefined) + CCn1c(-c2cccnc2C(C)OC)c2c3cc(ccc31)N1CCOC(CC(NC(=O)C(C(C)C)N(C)C(=O)C3(F)CCN(C(=O)C#CC(C)(C)N(C)C)CC3)C(=O)N3CCCC(N3)C(=O)OCC(C)(C)C2)C1', 'pIC50', '=', 5.90),
  ('Cc1nc(N2CCC3(CC2)COC(C)C3N)c(CO)nc1Sc1ccnc(N)c1Cl (centres undefined) + CCn1c(-c2cccnc2C(C)OC)c2c3cc(ccc31)N1CCOC(CC(NC(=O)C(C(C)C)N(C)C(=O)C3(F)CCN(C(=O)C#CC(C)(C)N(C)C)CC3)C(=O)N3CCCC(N3)C(=O)OCC(C)(C)C2)C1', 'pIC50', '=', 5.21),
  ('CC(Nc1ccc2c(c1)OCCn1cc(N3C(=O)OCC3C(F)F)nc1-2)C(N)=O (centres undefined) + CCn1c(-c2cc(N3CCN(C)CC3)cnc2C(C)OC)c2c3cc(ccc31)-c1csc(n1)CC(NC(=O)C1CC1C)C(=O)N1CCCC(N1)C(=O)OCC(C)(C)C2', 'pIC50', '<', 5.00),
  ('O=C(c1ccc(F)c(F)c1Nc1ccc(I)cc1F)N1CC(O)([C@@H]2CCCCN2)C1 + CCn1c(-c2cccnc2C(C)OC)c2c3cc(ccc31)N1CCOC(CC(NC(=O)C(C(C)C)N(C)C(=O)C3(F)CCN(C(=O)C#CC(C)(C)N(C)C)CC3)C(=O)N3CCCC(N3)C(=O)OCC(C)(C)C2)C1', 'pIC50', '=', 6.52);

* * *

Tested on: K12877-001-R-J1-PDC complex spheroid viability
procedureSummary: Anticancer human tumor K12877-001-R-J1-PDC cell line growth inhibition [RAS];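 also: spheroids exposed to agents for one week before readout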;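 as to viability, T/C: tumour cells co-cultured with HUVEC and mesenchymal stem cells in spheroids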
conditionDetails: second compound 0.1 µM; first compound 3.16 µM; stronger effect = lower value
readoutType: viability, T/C (%)

INSERT INTO results (compound, readouttype, valueobserved) VALUES
  ('Cc1nc(N2CCC3(CC2)COC(C)C3N)c(CO)nc1Sc1ccnc(N)c1Cl (stereo unspecified) + C=CC(=O)N1CCN(c2nc(OCC3CCCN3C)nc3c(F)c(-c4nc(N)cc(C)c4C(F)(F)F)c(Cl)cc23)C(C)C1', 'viability, T/C', 79.2),
  ('C[C@@H](NC(=O)c1ncnc(N)c1Cl)c1ncc(C(=O)Nc2cc(C(F)(F)F)c(Cl)cn2)s1 + C=CC(=O)N1CCN(c2nc(OCC3CCCN3C)nc3c(F)c(-c4nc(N)cc(C)c4C(F)(F)F)c(Cl)cc23)C(C)C1', 'viability, T/C', 83.7),
  ('Cc1nc(N2CCC3(CC2)COC(C)C3N)c(CO)nc1Sc1ccnc(N)c1Cl (stereo unspecified) + C#Cc1c(F)ccc2cc(O)cc(-c3ncc4c(N5CC6CCC(C5)N6)nc(OCC56CCCN5CC(F)C6)nc4c3F)c12', 'viability, T/C', 93.5),
  ('CC(Nc1ccc2c(c1)OCCn1cc(N3C(=O)OCC3C(F)F)nc1-2)C(N)=O (stereo unspecified) + C#Cc1c(F)ccc2cc(O)cc(-c3ncc4c(N5CC6CCC(C5)N6)nc(OCC56CCCN5CC(F)C6)nc4c3F)c12', 'viability, T/C', 56.7),
  ('C[C@@H](NC(=O)c1ncnc(N)c1Cl)c1ncc(C(=O)Nc2cc(C(F)(F)F)c(Cl)cn2)s1 + C#Cc1c(F)ccc2cc(O)cc(-c3ncc4c(N5CC6CCC(C5)N6)nc(OCC56CCCN5CC(F)C6)nc4c3F)c12', 'viability, T/C', 92.5),
  ('CC1(O)CCCC1n1c(=O)c(C(F)F)cc2cnc(NC3CCN(S(C)(=O)=O)CC3)nc21 (stereo unspecified) + C#Cc1c(F)ccc2cc(O)cc(-c3ncc4c(N5CC6CCC(C5)N6)nc(OCC56CCCN5CC(F)C6)nc4c3F)c12', 'viability, T/C', 62.7);

* * *

System: K12877-001-R-J1-PDC complex spheroid viability
procedureSummary: Anticancer human tumor K12877-001-R-J1-PDC cell line growth inhibition [RAS];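 also: spheroids exposed to agents for one week before readout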;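 as to viability, T/C: tumour cells co-cultured with HUVEC and mesenchymal stem cells in spheroids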
conditionDetails: second compound 0.000949 µM; first compound 0.01 µM; stronger effect = lower value
Description: RAS pathway inhibitors in Combinations in Complex Spheroids A high-throughput screen of multi-cell type tumor spheroids was designed to identify active combinations of RAS pathway inhibitors and targeted small molecules. Complex spheroids include a stromal component modeled by human endothelial cells (HUVEC) and fibroblasts modeled by human mesenchymal stem cells (MSCs). […] Compounds. […] If the clinical Cmax for an agent had not been determined, the highest concentration tested was 10 microM. […]
readoutType: viability, T/C (%)

INSERT INTO assay_data (compound, systemundertest, valueobserved) VALUES
  ('C=CC(=O)N1CCN(c2nc(OCC3CCCN3C)nc3c(F)c(-c4nc(N)cc(C)c4C(F)(F)F)c(Cl)cc23)C(C)C1 (centres undefined) + CCn1c(-c2cc(N3CCN(C)CC3)cnc2C(C)OC)c2c3cc(ccc31)-c1csc(n1)CC(NC(=O)C1CC1C)C(=O)N1CCCC(N1)C(=O)OCC(C)(C)C2', 'K12877-001-R-J1-PDC complex spheroid viability', 71.5),
  ('C=CC(=O)Nc1cc(Nc2nccc(-c3cn(C)c4ccccc34)n2)c(OC)cc1N(C)CCN(C)C + CCn1c(-c2cccnc2C(C)OC)c2c3cc(ccc31)N1CCOC(CC(NC(=O)C(C(C)C)N(C)C(=O)C3(F)CCN(C(=O)C#CC(C)(C)N(C)C)CC3)C(=O)N3CCCC(N3)C(=O)OCC(C)(C)C2)C1', 'K12877-001-R-J1-PDC complex spheroid viability', 75.9),
  ('C=CC(=O)Nc1cc(Nc2nccc(-c3cn(C)c4ccccc34)n2)c(OC)cc1N(C)CCN(C)C + CCn1c(-c2cc(N3CCN(C)CC3)cnc2C(C)OC)c2c3cc(ccc31)-c1csc(n1)CC(NC(=O)C1CC1C)C(=O)N1CCCC(N1)C(=O)OCC(C)(C)C2', 'K12877-001-R-J1-PDC complex spheroid viability', 69.3),
  ('CCN1CCN(Cc2ccc(Nc3ncc(F)c(-c4cc(F)c5nc(C)n(C(C)C)c5c4)n3)nc2)CC1 + CCn1c(-c2cc(N3CCN(C)CC3)cnc2C(C)OC)c2c3cc(ccc31)-c1csc(n1)CC(NC(=O)C1CC1C)C(=O)N1CCCC(N1)C(=O)OCC(C)(C)C2', 'K12877-001-R-J1-PDC complex spheroid viability', 84.1);

* * *

Test system: K12877-001-R-J1-PDC complex spheroid viability
procedureSummary: Anticancer human tumor K12877-001-R-J1-PDC cell line growth inhibition [RAS]; active = viability on the fitted dose curve at most 10% of control; inactive = the rest;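 also: spheroids exposed to agents for one week before readout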
conditionDetails: second compound 0.316 µM; first compound 0.0316 µM
Outcome codes: yes for active, no for inactive

INSERT INTO measurements (molecule, answerlabel) VALUES
  ('C[C@@H](NC(=O)c1ncnc(N)c1Cl)c1ncc(C(=O)Nc2cc(C(F)(F)F)c(Cl)cn2)s1 + C=CC(=O)N1CCN(c2nc(OCC3CCCN3C)nc3c(F)c(-c4nc(N)cc(C)c4C(F)(F)F)c(Cl)cc23)C(C)C1', 'no'),
  ('C[C@@H](NC(=O)c1ncnc(N)c1Cl)c1ncc(C(=O)Nc2cc(C(F)(F)F)c(Cl)cn2)s1 + C#Cc1c(F)ccc2cc(O)cc(-c3ncc4c(N5CC6CCC(C5)N6)nc(OCC56CCCN5CC(F)C6)nc4c3F)c12', 'no'),
  ('CC(Nc1ccc2c(c1)OCCn1cc(N3C(=O)OCC3C(F)F)nc1-2)C(N)=O (stereo not given) + C=CC(=O)N1CCN(c2nc(OCC3CCCN3C)nc3c(F)c(-c4nc(N)cc(C)c4C(F)(F)F)c(Cl)cc23)C(C)C1', 'no'),
  ('CC(=O)OC12COC1CC(O)C1(C)C(=O)C(O)C3=C(C)C(OC(=O)C(O)C(NC(=O)OC(C)(C)C)c4ccccc4)CC(O)(C(OC(=O)c4ccccc4)C21)C3(C)C (stereo not given) + C#Cc1c(F)ccc2cc(O)cc(-c3ncc4c(N5CC6CCC(C5)N6)nc(OCC56CCCN5CC(F)C6)nc4c3F)c12', 'yes'),
  ('Nc1ccn(C2OC(CO)C(O)C2(F)F)c(=O)n1 (stereo not given) + C=CC(=O)N1CCN(c2nc(OCC3CCCN3C)nc3c(F)c(-c4nc(N)cc(C)c4C(F)(F)F)c(Cl)cc23)C(C)C1', 'yes');
